assay: chemical genetic growth profiling, strain panel (AID 1159580);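 also: tested at 20 µM; growth read once vehicle control cultures reached saturation at 30 °C; 1 = growth at the plate median or of vehicle wells; lower values mean less growth of the strain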; details: S. cerevisiae deletion strains, growth OD, locus YML016C, strain PPZ1
Out of some 5,500 compounds screened, about 2,000 (36%) were called active. Roughly 18% stayed inconclusive and do not appear here. Rule as the data show it: active = normalized growth mostly below about 0.91 (no sharp cut-off); inconclusive = no clear call, values can overlap the other calls; inactive = mostly above about 0.92. The list shows a part of the results.
Response enum: active, inactive

Example entries and their recorded answers appear below.
>  <compound>
O=c1[nH]cc(F)c(=O)[nH]1

>  <classification>
active

$$$$
>  <compound>
CC(=O)Nc1ccc(OCC(O)CNC(C)C)cc1 (stereo unspecified)

>  <classification>
inactive

$$$$
>  <compound>
Nc1ccc(S(=O)(=O)c2ccc(N)cc2)cc1

>  <classification>
inactive

$$$$
>  <compound>
COc1ccc2c(c1)c(CC(=O)O)c(C)n2C(=O)c1ccc(Cl)cc1

>  <classification>
inactive

$$$$

API: the following record is the query input.
Dear all, I need the recorded test outcome for NC(N)=N/N=C/c1c(Cl)cccc1Cl , thank you. inactive

---

experiment: chemical genetic growth profiling, strain panel (AID 1159580);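 also: tested at 20 µM; growth read once vehicle control cultures reached saturation at 30 °C; 1 = growth at the plate median or of vehicle wells; lower values mean less growth of the strain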; details: S. cerevisiae deletion strains, growth OD, locus YLR268W, strain sec22, stronger effect = lower value
Screen size: about 5,500 compounds; about 2,000 (36%) were called active. Not shown: some 18% with an inconclusive outcome. The list shows a part of the results.
measure-name: normalized growth
// keep it numeric: no unit symbol after the value

Before answering, review these 3 worked examples.
>  <compound>
CC(C)=CCCC1(C)C=Cc2c(O)c3c(c(CC=C(C)C)c2O1)OC12C(=CC4CC1C(C)(C)OC2(C/C=C(/C)C(=O)O)C4O)C3=O (stereo unspecified)

>  <normalized growth>
0.883

$$$$
>  <compound>
O=c1[nH]cc(F)c(=O)[nH]1

>  <normalized growth>
0.726

$$$$
>  <compound>
C#C[C@]1(O)CCC2C3CCC4=CC(=O)CC[C@@H]4C3CC[C@@]21C (stereo partly specified)

>  <normalized growth>
0.94

$$$$

Tell me the measured normalized growth of CC(C)CC(N(C)C)C1(c2ccc(Cl)cc2)CCC1 (stereo unspecified) , please. 1.02

Repeat for the following compound: C=C/C(C)=C\CC1C(C)(O)CCC2C(C)(C)CCCC21C (stereo unspecified) 0.0849

Repeat for the following compound: O=c1cc(CO)occ1O 1.02

Repeat for the following compound: C#C[C@]1(O)CCC2C3CCC4=C(CCC(=O)C4)C3CC[C@@]21C (stereo partly specified) 0.959

Repeat for the following compound: CC(=O)/C=C\[C@@H]1[C@@]2(C)CCCC(C)(C)C2CC[C@@]1(C)O (stereo partly specified) 0.923

Repeat for the following compound: CNCc1ccccc1 1.03

Repeat for the following compound: Nc1ccccc1C(=O)CC(N)C(=O)O (stereo unspecified) 0.957

Repeat for the following compound: CC(C)=CCCC1(C)C=Cc2c(O)c3c(c(CC=C(C)C)c2O1)OC12C(=CC4CC1C(C)(C)OC2(C/C=C(\C)C(N)=O)C4=O)C3=O (stereo unspecified) 0.896

---

Recorded normalized growth values for a group of molecules are listed next.
assay: chemical genetic growth profiling, strain panel (AID 1159580);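 also: tested at 20 µM; growth read once vehicle control cultures reached saturation at 30 °C; 1 = growth at the plate median or of vehicle wells; lower values mean less growth of the strain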; settings: S. cerevisiae deletion strains, growth OD, locus YPL051W, strain arl3, stronger effect = lower value
Among all 5,500 compounds or so, about 2,000 (36%) were called active. Roughly 18% stayed inconclusive and do not appear here. This is one part of the list. Where a SMILES comes first, the peptide text is derived from it. Bridges are numbered along the chain shown (N, C = ends). [ ]: non-standard residue; d: D form. The star is where a group is joined. ξ: configuration not given here. ξDab(CH2SO3H) = NC(CCNCS(=O)(=O)O)C(=O)O; Heptanoyl(6-Me) = CC(C)CCCCC(=O)*; Dab = NCC[CH](N)C(=O)O
// keep it numeric: no unit symbol after the value

>  <molecule>
COC(=O)C[C@H]1C(C)(C)C2(O)OC34CC2C(=O)[C@]1(C)C3CC[C@]1(C)C4=CC(=O)O[C@H]1c1ccoc1 (some centres not stated)

>  <normalized growth>
1.01

$$$$
>  <molecule>
NC12CC3CC(CC(C3)C1)C2

>  <normalized growth>
1.02

$$$$
>  <molecule>
C#C[C@]1(OC(C)=O)CCC2C3CCC4=CC(=O)CC[C@@H]4C3CC[C@@]21C (some centres not stated)

>  <normalized growth>
0.98

$$$$
>  <molecule>
Nc1ccc(S(=O)(=O)c2ccc(N)cc2)cc1

>  <normalized growth>
0.977

$$$$
>  <molecule>
CC(=O)/C=C\[C@@H]1[C@@]2(C)CCCC(C)(C)C2CC[C@@]1(C)O (some centres not stated)

>  <normalized growth>
0.986

$$$$
>  <molecule>
CCC(C)C1NC(=O)C(CCNCS(=O)(=O)O)NC(=O)C(NC(=O)C(CCNCS(=O)(=O)O)NC(=O)C(NC(=O)C(CCNCS(=O)(=O)O)NC(=O)CCCCC(C)C)C(C)O)CCNC(=O)C(C(C)O)NC(=O)C(CCNCS(=O)(=O)O)NC(=O)C(CCNCS(=O)(=O)O)NC(=O)C(C(C)CC)NC1=O (configuration not stated) ({Heptanoyl(6-Me)}-[ξDab(CH2SO3H)]T[ξDab(CH2SO3H)][Dab][ξDab(CH2SO3H)]II[ξDab(CH2SO3H)][ξDab(CH2SO3H)]T; lactam 4-C; configuration not given here)

>  <normalized growth>
1

$$$$

Would you kindly look at the next entry?
Tell me the measured normalized growth of CC(C)(C#N)O[C@@H]1O[C@H](CO)[C@@H](O)[C@H](O)[C@H]1O , please. 1.01
